Measured values drawn from the NIST ThermoML archive (doi:10.1021/acs.jced.7b00503) for this set.

Assay: wn = mass fraction of the nth substance listed
Conditions: 293.15 K, Pendant drop shape, w1 = 0.05
reported property: surface tension liquid-gas (mN/m)
The reply should be a number in mN/m, with the unit left off.

Example compounds with recorded surface tension liquid-gas:
[I-].[Na+] [sodium iodide] + O: 73.15
[Cl-].[K+] [potassium chloride] + O: 73.89
[Cl-].[Na+] [sodium chloride] + O: 74.09
[I-].[K+] [potassium iodide] + O: 75.44
[Br-].[K+] [potassium bromide] + O: 73.93

Here's the next entry for you.
Need surface tension liquid-gas, item [Br-].[Na+] [sodium bromide] + O
74.11
